Recorded relative viability by entry
Tested on: SK-LU-1
RUN_DESCRIPTION: relative viability (nuclei count vs DMSO), 5 days (fraction); higher = more cells survive
MEASUREMENT_CONDITIONS: first compound 0.002 µM
ENDPOINT_NAME: relative viability

{"columns": ["COMPOUND", "STUDY_TARGET", "VAL"],
 "data": [
  ["CC(=O)O[C@@]12CO[C@@H]1C[C@H](O)[C@@]1(C)C(=O)[C@H](O)C3=C(C)[C@@H](OC(=O)[C@H](O)[C@@H](NC(=O)OC(C)(C)C)c4ccccc4)C[C@@](O)([C@@H](OC(=O)c4ccccc4)[C@H]21)C3(C)C [Docetaxel] + CC(C)C[C@H](NC(=O)[C@H](Cc1ccccc1)NC(=O)c1cnccn1)B(O)O [Bortezomib] (partner 0.002 µM)", "SK-LU-1", 0.307],
  ["CC(=O)O[C@@]12CO[C@@H]1C[C@H](O)[C@@]1(C)C(=O)[C@H](O)C3=C(C)[C@@H](OC(=O)[C@H](O)[C@@H](NC(=O)OC(C)(C)C)c4ccccc4)C[C@@](O)([C@@H](OC(=O)c4ccccc4)[C@H]21)C3(C)C [Docetaxel] + C[C@@H](Oc1cc(-c2cnn(C3CCNCC3)c2)cnc1N)c1c(Cl)ccc(F)c1Cl [Crizotinib] (partner 1 µM)", "SK-LU-1", 0.379],
  ["CC(=O)O[C@@]12CO[C@@H]1C[C@H](O)[C@@]1(C)C(=O)[C@H](O)C3=C(C)[C@@H](OC(=O)[C@H](O)[C@@H](NC(=O)OC(C)(C)C)c4ccccc4)C[C@@](O)([C@@H](OC(=O)c4ccccc4)[C@H]21)C3(C)C [Docetaxel] + CC(=O)Nc1cccc(-n2c(=O)n(C3CC3)c(=O)c3c(Nc4ccc(I)cc4F)n(C)c(=O)c(C)c32)c1 [Trametinib] (partner 0.02 µM)", "SK-LU-1", 0.411]
]}
